# assay explanation: protein stability index of a GFP-peptide fusion (GPS, HEK-293T) (PSI 1-6); higher = more stable;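 also: 24-mer peptide tiles fused after GFP, lentivirally expressed, FACS-sorted into six equal bins by GFP/DsRed ratio, decoded by Illumina sequencing, PSI is the read-weighted mean bin number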
# measurement conditions: treatment: DMSO; c terminus: a fixed tail appended
Label scheme for protein stability index: lower than 4 is false, 4 and above is true.

Worked set:
{"residues": "LSFAAKQRELHSHVTNAMVLVNVL [DHCR7]", "label class": "false"}
{"residues": "RWASAPPLYTLIDVLKYSYVRLVC [ZSWIM9]", "label class": "false"}
{"residues": "QASEREAPSIEQRLQEVRESIRRA [FCHSD1]", "label class": "true"}
{"residues": "LTHLSLSRRASESSLSSESSESSD [CDC25B]", "label class": "true"}
{"residues": "TSRTQVYKPPALKKSNSPGTASSG [ZC2HC1A]", "label class": "true"}
{"residues": "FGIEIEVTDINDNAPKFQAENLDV [PCDHGA10]", "label class": "false"}

Query: Quick check, protein stability index >= 4? LKVRSHDPEEAIRHDVIVSIVTAA [PDS5B]
Response: false

Query: Does the reported protein stability index for LRRIRAESGTKGLFAGFLPRIIKA [SLC25A39] fall at or above the 4 mark?
Response: false

Query: Identify whether the reported protein stability index of the following sequence is 4 or greater: VNKLKWNLAAMTPHDFIEHFLSKM [CCND1]
Response: false

Query: Identify whether the reported protein stability index of the following sequence is 4 or greater: MRQDLEEERVALNTEIEKLGRSIV [PKD2L1]
Response: true

Query: Hi team, for NRGINITIYGKTFRVVDCDQFTQV [EFHC1] , is the recorded protein stability index at or above 4?
Response: false

Query: Check if protein stability index >= 4 (inclusive). Item: NRASLYSFPEPEAAQPMTKKRKVD [PRAME]
Response: true

Query: Hi team, for EFGYNAETQKLLCKNGETLLGAVN [ARFIP2] , is the recorded protein stability index at or above 4?
Response: false

Query: # bool: protein stability index of LNEDTIQDVVQAADLLLLTDLKTL [GAN] >= 4
Response: false

Query: Does DSLEKTDDDKYKITLKYPHYFPVM [NLN] have a reported protein stability index of at least 4?
Response: false

Query: Is it the case that AFARQAAQEPSAVPRAGPLTVNTE [FOXJ1] has protein stability index reaching or exceeding 4?
Response: true

Query: Check if protein stability index >= 4 (inclusive). Item: SLDTLLEAVESRGGVPGGCVLVPR [SMAD6]
Response: false
